Test target: AXL (human catalytic domain) (Homo sapiens, UniProt P30530)
Construct: purchased Upstate Ltd. 14-512
Sequence (P30530 473-894): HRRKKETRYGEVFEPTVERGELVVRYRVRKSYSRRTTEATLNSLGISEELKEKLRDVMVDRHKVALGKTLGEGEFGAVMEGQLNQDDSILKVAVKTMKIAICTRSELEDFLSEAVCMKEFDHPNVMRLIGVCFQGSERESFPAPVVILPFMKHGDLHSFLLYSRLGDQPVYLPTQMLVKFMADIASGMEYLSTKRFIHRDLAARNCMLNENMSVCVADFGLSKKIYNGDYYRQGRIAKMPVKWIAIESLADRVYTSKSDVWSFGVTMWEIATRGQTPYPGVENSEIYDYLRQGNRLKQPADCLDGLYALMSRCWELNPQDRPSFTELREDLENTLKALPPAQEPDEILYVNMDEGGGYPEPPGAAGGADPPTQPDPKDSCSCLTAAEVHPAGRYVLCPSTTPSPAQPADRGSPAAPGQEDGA
Procedure summary: AXL (human catalytic domain) Enzyme Activity Assay (IMAP fluorescence polarisation)
Type: biochemical
Test settings: further data set (WW-001 through WW-169, XX-001 through XX-469, YY-001 through YY-016, ZZ-001 through ZZ-003); 150 μM ATP
# IC50 per entry

>  <Molecule>
Cn1ccc2cc(-c3cccc4nc(NC(=O)C5CC5)nn34)ccc21

>  <IC50>
0.1 to 1 µM

$$$$
>  <Molecule>
CN1CCCC1CCNc1cccc2nc(NC(=O)C3CC3)nn12 (stereo not shown)

>  <IC50>
1 to 10 µM

$$$$
>  <Molecule>
COc1ccc(COc2cccc(-c3cccc4nc(Nc5ccc(OCCN6CCCC6)cc5)nn34)c2)cc1

>  <IC50>
0.1 to 1 µM

$$$$
>  <Molecule>
Cn1cc(-c2cccc3nc(Nc4ccc(OCCN5CCCC5)cc4)nn23)cn1

>  <IC50>
0.1 to 1 µM

$$$$
>  <Molecule>
COc1ccc(-c2cccc3nc(NC(=O)C4CCC4)nn23)cc1

>  <IC50>
1 to 10 µM

$$$$
>  <Molecule>
CN1CCN(CCOc2ccc(Nc3nc4cccc(-c5ccc6c(c5)OCCO6)n4n3)cc2)CC1

>  <IC50>
≤ 0.1 µM

$$$$
>  <Molecule>
CN(C)C/C=C/c1cccc(Nc2nc3cccc(-c4ccc5c(c4)OCCO5)n3n2)c1

>  <IC50>
≤ 0.1 µM

$$$$
>  <Molecule>
CCCOc1cccc(-c2cccc3nc(Nc4ccc(OCCN5CCCC5)cc4)nn23)c1

>  <IC50>
1 to 10 µM

$$$$
>  <Molecule>
O=C(Cc1cccc(Cl)c1)Nc1ccc(-c2cccc3nc(Nc4ccc(OCCN5CCCC5)cc4)nn23)cc1

>  <IC50>
1 to 10 µM

$$$$
>  <Molecule>
COc1ccccc1-c1cccc2nc(Nc3ccc(OCCN4CCCC4)cc3)nn12

>  <IC50>
1 to 10 µM

$$$$
>  <Molecule>
CCC(=O)Nc1nc2cccc(-c3ccc(OC)cc3)n2n1

>  <IC50>
1 to 10 µM

$$$$
>  <Molecule>
Nc1cccc(-c2cccc3nc(Nc4ccc(OCCN5CCCC5)cc4)nn23)c1

>  <IC50>
0.1 to 1 µM

$$$$
>  <Molecule>
c1coc(CSCCn2cc(-c3cccc4nc(Nc5ccc(OCCN6CCCC6)cc5)nn34)cn2)c1

>  <IC50>
0.1 to 1 µM

$$$$
>  <Molecule>
COc1ccc(-c2cccc3nc(Nc4ccc(OCCN(C)C)cc4)nn23)cc1

>  <IC50>
0.1 to 1 µM

$$$$
>  <Molecule>
CCCCS(=O)(=O)n1cc(-c2cccc3nc(Nc4ccc(OCCN5CCCC5)cc4)nn23)cn1

>  <IC50>
1 to 10 µM

$$$$
>  <Molecule>
CCN(CC)CCOc1cc(Nc2nc3cccc(-c4ccc(OC(C)C)cc4)n3n2)ccn1

>  <IC50>
≤ 0.1 µM

$$$$
>  <Molecule>
Cc1noc(C)c1-c1ccc(-c2cccc3nc(Nc4ccc(OCCN5CCCC5)cc4)nn23)cc1

>  <IC50>
0.1 to 1 µM

$$$$
>  <Molecule>
CCCCCn1cc(-c2cccc3nc(Nc4ccc(OCCN5CCCC5)cc4)nn23)cn1

>  <IC50>
0.1 to 1 µM

$$$$
>  <Molecule>
c1cc(-c2ccoc2)cc(-c2cccc3nc(Nc4ccc(OCCN5CCCC5)cc4)nn23)c1

>  <IC50>
0.1 to 1 µM

$$$$
>  <Molecule>
CC(Oc1cccc(-c2cccc3nc(Nc4ccc(OCCN5CCCC5)cc4)nn23)c1)C(=O)Nc1ccccc1 (stereo not shown)

>  <IC50>
0.1 to 1 µM

$$$$
>  <Molecule>
CCc1nnc(NCCOc2ccc(Nc3nc4cccc(-c5ccc(OC)cc5)n4n3)cc2)[nH]1

>  <IC50>
0.1 to 1 µM

$$$$
>  <Molecule>
C[C@@H](CN)Oc1ccc(Nc2nc3cccc(-c4ccc5c(c4)OCCO5)n3n2)cc1

>  <IC50>
0.1 to 1 µM

$$$$
>  <Molecule>
COc1ccc(-c2cccc3nc(Nc4ccc(OCCN5CCOCC5)cc4)nn23)cc1

>  <IC50>
≤ 0.1 µM

$$$$
>  <Molecule>
Cc1ccc(-c2cccc3nc(Nc4ccc(OCCN5CCCC5)cc4)nn23)cn1

>  <IC50>
1 to 10 µM

$$$$
>  <Molecule>
CCN(CC)CCNc1ccc(Nc2nc3cccc(-c4ccc5c(c4)OCCO5)n3n2)cc1

>  <IC50>
≤ 0.1 µM

$$$$

###

# pIC50 per entry
Test target: AXL (human catalytic domain) (Homo sapiens, UniProt P30530)
Construct: purchased Upstate Ltd. 14-512
Procedure summary: AXL (human catalytic domain) Enzyme Activity Assay (IMAP fluorescence polarisation)
Format: biochemical
Test settings: further data set (WW-001 through WW-169, XX-001 through XX-469, YY-001 through YY-016, ZZ-001 through ZZ-003); 150 μM ATP
pIC50: −log10 of the molar value.

>  <Compound>
CC(C)Cn1cc(-c2cccc3nc(Nc4ccc(OCCN5CCCC5)cc4)nn23)cn1 [XX-274]

>  <pIC50>
5.00 to 6.00

$$$$
>  <Compound>
COc1ccc2nc(Nc3ccc(OCCN4CCCC4)cc3)nn2c1-c1ccc2c(c1)OCCO2 [XX-323]

>  <pIC50>
5.00 to 6.00

$$$$
>  <Compound>
O=S(=O)(c1ccc(Nc2nc3cccc(-c4ccc5c(c4)OCCO5)n3n2)cc1)N1CCNCC1 [XX-145]

>  <pIC50>
6.00 to 7.00

$$$$

###

# IC50 per entry
Test target: AXL (human catalytic domain) (Homo sapiens)
Construct: purchased Upstate Ltd. 14-512
Procedure summary: AXL (human catalytic domain) Enzyme Activity Assay (IMAP fluorescence polarisation)
Assay type: biochemical
Test settings: first data set; recombinant AXL isoform 1 aa473-894, 150 μM ATP
Value type: IC50

>  <Smiles>
COc1ccc(-c2cccc3nc(Nc4ccc(OCCN5CCOCC5)cc4)nn23)cc1

>  <Val>
< 1000 nM

$$$$
>  <Smiles>
CN(C)CCOc1ccc(Nc2nc3cccc(-c4ccc5occc5c4)n3n2)cc1

>  <Val>
< 1000 nM

$$$$
>  <Smiles>
CN(C)CCNC(=O)c1cccc(Nc2nc3cccc(-c4ccc5c(c4)OCO5)n3n2)c1

>  <Val>
< 1000 nM

$$$$
>  <Smiles>
COc1ccc(-c2cccc3nc(Nc4ccc(OCCNCCO)cc4)nn23)cc1

>  <Val>
< 1000 nM

$$$$
>  <Smiles>
O=C(Nc1nc2cccc(-c3ccc4c(c3)OCCO4)n2n1)C1CC1

>  <Val>
< 1000 nM

$$$$
>  <Smiles>
O=C(Nc1nc2cccc(-c3ccc(Oc4ccccc4)cc3)n2n1)C1CC1

>  <Val>
1000 to 10000 nM

$$$$
>  <Smiles>
O=C(Nc1nc2cccc(Nc3ccccc3Cl)n2n1)C1CC1

>  <Val>
1000 to 10000 nM

$$$$
>  <Smiles>
O=C(Nc1nc2cccc(-c3ccc(O)c(F)c3)n2n1)C1CC1

>  <Val>
< 1000 nM

$$$$
>  <Smiles>
O=C(Nc1nc2cccc(-c3ccc(F)cc3)n2n1)C1CC1

>  <Val>
1000 to 10000 nM

$$$$
>  <Smiles>
O=C(Nc1nc2cccc(-c3cnn(Cc4ccccc4)c3)n2n1)C1CC1

>  <Val>
1000 to 10000 nM

$$$$
>  <Smiles>
CCCCNc1cccc2nc(NC(=O)C3CC3)nn12

>  <Val>
1000 to 10000 nM

$$$$
>  <Smiles>
CNCCOc1ccc(Nc2nc3cccc(-c4ccc(OC)cc4)n3n2)cc1

>  <Val>
< 1000 nM

$$$$
>  <Smiles>
O=C(Nc1nc2cccc(-c3ccoc3)n2n1)C1CC1

>  <Val>
1000 to 10000 nM

$$$$
>  <Smiles>
CS(=O)(=O)c1ccc(-c2cccc3nc(NC(=O)C4CC4)nn23)cc1

>  <Val>
1000 to 10000 nM

$$$$
>  <Smiles>
CCN(CC)CCOc1cccc(Nc2nc3cccc(-c4ccc5c(c4)OCCO5)n3n2)c1

>  <Val>
< 1000 nM

$$$$
